Attribution: paper PMC10059125

protocol_summary: Plasma pharmacokinetics of free DOPET in healthy volunteers after oral enteric-coated capsules (DOPET in EVOO), non-compartmental analysis
Assay type: in vivo, human
run_parameters: human; mean, n = 20; free DOPET in plasma; oral 15 mg DOPET (2 cps)
endpoint_name: half-life (h)
Quick reminder: number only, in h, skip the unit.

Q: Please give measured half-life of the following entry: OCCc1ccc(O)c(O)c1 [DOPET, 3,4-dihydroxyphenyl ethanol]
Ans: 2.51

###

protocol_summary: Plasma pharmacokinetics of free DOPET in healthy volunteers after oral enteric-coated capsules (DOPET in EVOO), non-compartmental analysis
Format: in vivo, human
run_parameters: human, plasma, po, 15 mg, mean, n = 20; free DOPET in plasma; oral 15 mg DOPET (2 cps); read-out: Cmax
endpoint_name: Cmax
A complete answer gives the number followed by the unit.

Q: Please report the measured Cmax for OCCc1ccc(O)c(O)c1 [DOPET, 3,4-dihydroxyphenyl ethanol]
Ans: 5.5 ng/mL

###

protocol_summary: Urinary excretion of DOPET and metabolites in healthy volunteers after oral enteric-coated capsules
Assay type: in vivo, human
run_parameters: approximately 6 h after oral 15 mg (97.3 µmole) DOPET; n = 20
endpoint_name: mean peak in urine (µmol)
Could you give me the number in µmol? Just the number is fine.

compound | endpoint_name | endpoint_result
OCCc1ccc(O)c(O)c1 [DOPET, 3,4-dihydroxyphenyl ethanol] | mean peak in urine | 4.67

Q: Dear colleague, please send me the reported mean peak in urine for COc1cc(CC(=O)O)ccc1O when you can.
Ans: 18.39

Q: State its mean peak in urine for this compound: COc1cc(CCO)ccc1O [MOPET, 4-hydroxy-3-methoxyphenethanol]
Ans: 0.44

Q: Determine from records and report mean peak in urine for O=C(O)Cc1ccc(O)c(O)c1 [DOPAC, 3,4-dihydroxyphenylacetic acid]
Ans: 9.93
